System: MDA-MB-231 breast
assay.info: NCI tumour cell line growth inhibition, 48 h
reported.metric: TGI

Worked set:
>  <compound>
c1ccc2nc3cc4c(cc3nc2c1)NC12CCCCC1CC1=C(CCCC1)N42 (configuration not stated)

>  <endpoint.value>
> 10 µM

$$$$
>  <compound>
COc1nc2c(c(=O)n1C)NC(C(O)C(O)CO)C=N2 (configuration not stated)

>  <endpoint.value>
> 10 µM

$$$$
>  <compound>
CC(C)CNc1nc(N=[N+]=[N-])nc(NCC(C)C)n1

>  <endpoint.value>
> 10 µM

$$$$
>  <compound>
COc1ccc(-n2sc(=O)n(Cc3ccc(COC(=O)C(C)c4ccc(CC(C)C)cc4)cc3)c2=O)cc1 (configuration not stated)

>  <endpoint.value>
7.11 µM

$$$$
>  <compound>
NCCc1ccc2c(c1)C(=O)c1c(O)ccc(O)c1C2=O

>  <endpoint.value>
> 27.8 µM

$$$$
>  <compound>
CN(CC#N)C(=O)Cc1ccc([N+](=O)[O-])cc1

>  <endpoint.value>
> 10 µM

$$$$

Turning to the following compound.
INPUT: Provide TGI value for the following compound: "CCOC(=O)CC(N1CC1)N1CC1"
OUTPUT: > 10 µM

====

System: OVCAR-3 ovarian
assay.info: NCI tumour cell line growth inhibition, 48 h
The following compounds are listed with their measured TGI values.

Worked set:
>  <compound>
COc1ccc(Nc2nc3ccccc3nc2C(=O)O)cc1

>  <TGI>
> 100 µM

$$$$
>  <compound>
CC(O)=NC(Cc1ccc2ccccc2c1)C(O)=NC(Cc1ccc(Cl)cc1)C(O)=NC(Cc1c[nH]c2ccccc12)C(O)=NC(CO)C(O)=NC(Cc1ccc(O)cc1)C(O)=NC(CCCN=C(N)N)C(O)=NC(CC(C)C)C(O)=NC(CCCN=C(N)N)C(=O)N1CCCC1C(O)=NC(C)C(=N)O (stereo not given)

>  <TGI>
> 100 µM

$$$$
>  <compound>
CN(CC#N)C(=O)Cc1ccc([N+](=O)[O-])cc1

>  <TGI>
> 10 µM

$$$$
>  <compound>
CS[C@@]1(C(=O)Nc2ccc3[nH]nc(-c4ccc(OC(C)C)nc4)c3c2)CCN(CC(=O)N2CC=C(c3ccc(-c4ncn(C)n4)cc3)CC2)C1

>  <TGI>
> 100 µM

$$$$

INPUT: Provide TGI value for the following compound: "CCOC(=O)c1cn2c([nH]c3ccccc32)c(C#N)c1=O"
OUTPUT: > 100 µM

====

Tested on: PC-3 prostate
assay.info: NCI tumour cell line growth inhibition, 48 h; in the data active = GI50 below about 0.43 µM; inactive = the rest
Bench note: report the call from active, inactive

Below are worked cases with known answers.
>  <compound>
C/C(=N\Nc1cccc(Cl)n1)c1ccccn1

>  <category.label>
inactive

$$$$
>  <compound>
CSc1ccc(C2=NN(C(=O)c3ccc(N)cc3)C(c3ccc(F)cc3)C2)cc1 (stereo not given)

>  <category.label>
inactive

$$$$
>  <compound>
COc1cnc2c(c1)C(=O)c1c-2n(CCCN2CCN(CCO)CC2)c(=O)c2cc([N+](=O)[O-])ccc12

>  <category.label>
inactive

$$$$
>  <compound>
Cc1cc2c(C(C)C)c(O)c(O)c(C=O)c2c(O)c1-c1c(C)cc2c(C(C)C)c(O)c(O)c(C=O)c2c1O (tested in a mixture with another compound)

>  <category.label>
inactive

$$$$
>  <compound>
COc1ccc(-c2cncn2-c2cc(OC)c(OC)c(OC)c2)cc1F

>  <category.label>
active

$$$$

INPUT: Query: recorded result category for "O=[N+]([O-])c1ccc(-c2ccccc2)c([As](=O)(O)O)c1" in this test
OUTPUT: inactive

INPUT: Query: recorded result category for "CN1CCN(c2ccc3nc4c(nc3c2C(F)(F)F)C(=O)c2ncccc2C4=O)CC1" in this test
OUTPUT: inactive

====

Test system: HL-60(TB) leukemia
assay.info: NCI tumour cell line growth inhibition, 48 h
Tag: rule met if measured TGI is not below 40 µM, rule not met if it is.

Below are worked cases with known answers.
>  <molecule>
CC(=O)O/C=C\OC1CCCC1

>  <experimental.system>
HL-60(TB) leukemia

>  <category.label>
rule met

$$$$
>  <molecule>
Cc1c(N2C(=O)/C(=C\c3ccc(N(C)C)cc3)N=C2c2ccccc2)c(=O)n(-c2ccccc2)n1C

>  <experimental.system>
HL-60(TB) leukemia

>  <category.label>
rule met

$$$$
>  <molecule>
CON

>  <experimental.system>
HL-60(TB) leukemia

>  <category.label>
rule met

$$$$
>  <molecule>
NC1=NS(=O)(=O)Nc2nc(-c3cccs3)[nH]c21

>  <experimental.system>
HL-60(TB) leukemia

>  <category.label>
rule met

$$$$
>  <molecule>
OC1(c2ccc3ccccc3c2)c2ccc3ccccc3c2C2=NCCN21 (configuration not stated)

>  <experimental.system>
HL-60(TB) leukemia

>  <category.label>
rule met

$$$$
>  <molecule>
O=S(Cc1cc2c(cc1Br)OCO2)c1ccccc1 (configuration not stated)

>  <experimental.system>
HL-60(TB) leukemia

>  <category.label>
rule met

$$$$

Proceed to the following item.
INPUT: Could you tell me if the measured TGI of "CS(=O)(=O)OCc1c(O)c2c(c(O)c1COS(C)(=O)=O)C(=O)C=CC2=O" reaches 40 µM or more?
OUTPUT: rule met

====

Tested on: SF-295 CNS
assay.info: NCI tumour cell line growth inhibition, 48 h
reported.metric: TGI

Worked set:
>  <compound>
C=CCC1=CC2(OC)C(=O)C(OC)(OC)C1C1C(OC)(OC)C(=O)C(OC)=CC12CC=C (stereo not given)

>  <experimental.system>
SF-295 CNS

>  <TGI>
> 100 µM

$$$$
>  <compound>
CC[O-].CC[O-].O=C([CH-]C(=O)c1ccccc1)c1ccccc1.O=C([CH-]C(=O)c1ccccc1)c1ccccc1.[Ti+4]

>  <experimental.system>
SF-295 CNS

>  <TGI>
> 100 µM

$$$$

INPUT: Provide TGI value for the following compound: "Cc1sc(/N=C2/NC(=O)CS2)nc1-c1nc(/N=C2/NC(=O)CS2)sc1C"
OUTPUT: > 50 µM

INPUT: Provide TGI value for the following compound: "CCOC(=O)c1cn2c([nH]c3ccccc32)c(C#N)c1=O"
OUTPUT: > 100 µM

INPUT: Provide TGI value for the following compound: COC(=O)C(=O)C1CCCCC(C2=NC3NN=C(N)N3C2=O)C1=O (stereo not given)
OUTPUT: > 100 µM

====

Tested on: CAKI-1 renal
assay.info: NCI tumour cell line growth inhibition, 48 h; in the data active means GI50 below about 0.43 µM; inactive means the rest
Bench note: report the call from active, inactive

Below are worked cases with known answers.
>  <compound>
N#CSCC(=O)c1ccc(Cl)cc1

>  <category.label>
active

$$$$
>  <compound>
CN(NC(=O)CC(=O)NN(C)C(=S)c1ccc(Cl)cc1)C(=S)c1ccc(Cl)cc1

>  <category.label>
inactive

$$$$
>  <compound>
COc1ccc(NC(=O)O[C@H]2[C@H](O[C@H]3[C@@H](O)COC(O[C@H]4C[C@H]5[C@@H]6CC=C7C[C@@H](O)CC[C@]7(C)[C@H]6CC[C@]5(C)[C@H]4[C@H](C)C(=O)CCC(C)C)[C@@H]3OC(C)=O)OC[C@@H](O)[C@@H]2O)cc1 (stereo partly specified)

>  <category.label>
active

$$$$
>  <compound>
Cc1c(N2C(=O)/C(=C\c3ccc(N(C)C)cc3)N=C2c2ccccc2)c(=O)n(-c2ccccc2)n1C

>  <category.label>
inactive

$$$$

Proceed to the following item.
INPUT: Query: recorded result category for "CCOc1cc(/C=N\NC(=O)N/N=C/c2ccc(O)c(OCC)c2)ccc1O" in this test
OUTPUT: inactive

====

The following molecules are listed with their measured TGI values.
System: UO-31 renal
assay.info: NCI tumour cell line growth inhibition, 48 h

Worked set:
>  <molecule>
COc1cccc(-c2cc(=O)c3cccnc3[nH]2)c1

>  <TGI>
> 100 µM

$$$$
>  <molecule>
C1=c2ccccc2=C2C(=C(c3ccccc3)C(c3ccccc3)=NN2c2ccccc2)S1

>  <TGI>
> 100 µM

$$$$
>  <molecule>
N#CC(c1ccccc1)(c1ccccc1)[C@@H](c1ccccc1)[C@H](Cc1ccccc1)NS(=O)(=O)c1ccccc1

>  <TGI>
> 100 µM

$$$$
>  <molecule>
C[C@]12CC[C@H](O)CC1=CC[C@@H]1[C@@H]2CC[C@]2(C)C(=O)CC[C@@H]12

>  <TGI>
> 100 µM

$$$$
>  <molecule>
COC(=O)CNC(=O)Nc1cc(N2C(=O)ON3C2C(C)(C)N(O)C3(C)C)ccc1C (centres undefined)

>  <TGI>
> 100 µM

$$$$
>  <molecule>
CP(C)C.[Ag][I]

>  <TGI>
> 100 µM

$$$$
>  <molecule>
OC1C2C=CCC1CCC2 (centres undefined)

>  <TGI>
> 100 µM

$$$$
>  <molecule>
C=C1CC(C/C=C(\C)CC2CC(=C)C(=O)O2)OC1=O (centres undefined)

>  <TGI>
> 100 µM

$$$$

INPUT: Recall the reported TGI of Cc1cc(C)c2c(c1)C(=O)C1(C2)Cc2c(ccc(C)c2C)C1=O (centres undefined) on UO-31 renal and write it down.
OUTPUT: > 100 µM

INPUT: Recall the reported TGI of CC12C(=O)N(CCN)C(=O)C1C1c3ccccc3C2c2ccccc21 (centres undefined) on UO-31 renal and write it down.
OUTPUT: > 100 µM

INPUT: Recall the reported TGI of "CCOC(=O)c1cn2c([nH]c3ccccc32)c(C#N)c1=O" on UO-31 renal and write it down.
OUTPUT: > 100 µM

INPUT: Recall the reported TGI of "CN(CC#N)C(=O)Cc1ccc([N+](=O)[O-])cc1" on UO-31 renal and write it down.
OUTPUT: > 10 µM

INPUT: Recall the reported TGI of CC(C)Cc1cccc(C(C)C)c1NC(=O)CCC(=O)N/N=C1\C(=N/NC(=O)CCC(=O)Nc2c(C(C)C)cccc2C(C)C)C(c2ccc3c(c2)OCO3)Oc2ccccc21 (centres undefined) on UO-31 renal and write it down.
OUTPUT: > 100 µM

INPUT: Recall the reported TGI of "COc1cc(/C=C/C(=O)c2ccc(Nc3nc(Nc4ccccc4)nc(Nc4ccc(Cl)cc4)n3)cc2)cc(OC)c1OC" on UO-31 renal and write it down.
OUTPUT: > 32.5 µM

INPUT: Recall the reported TGI of "C/C(CN1C(=O)c2ccccc2C1=O)=N\NS(=O)(=O)c1ccc(F)cc1" on UO-31 renal and write it down.
OUTPUT: > 100 µM

INPUT: Recall the reported TGI of CC1C(=O)C23OC[C@@]1(C)C1(O)CC[C@@H](C)[C@]21CC3=O (some centres undefined) on UO-31 renal and write it down.
OUTPUT: > 100 µM

INPUT: Recall the reported TGI of "CC[C@H](C)[C@H](NC(=O)C12CC(NC(C)=O)(C1)C2)C(=O)N(C)[C@H](C[C@@H](OC(C)=O)c1nc(C(=O)N[C@@H](Cc2ccccc2)C[C@H](C)C(=O)OC)cs1)C(C)C" on UO-31 renal and write it down.
OUTPUT: > 16.7 µM

INPUT: Recall the reported TGI of CCN1C(=O)N(CC)C2C1NN=c1s/c(=C\c3ccccc3)c(=O)n12 (centres undefined) on UO-31 renal and write it down.
OUTPUT: > 100 µM

INPUT: Recall the reported TGI of CN(C)CCC(C(=O)C(C)(C)C)c1ccccn1 (centres undefined) on UO-31 renal and write it down.
OUTPUT: > 100 µM

INPUT: Recall the reported TGI of COC(=O)/C(=N\O)C(C(=O)C=C(C)C)C(=O)C(=O)Nc1ccccc1C (centres undefined) on UO-31 renal and write it down.
OUTPUT: > 100 µM

INPUT: Recall the reported TGI of "Nn1c(N=Nc2c(O)[nH]c3ccccc23)n[nH]c1=S" on UO-31 renal and write it down.
OUTPUT: > 100 µM

INPUT: Recall the reported TGI of "CCCOCN1COCN=C1NC#N" on UO-31 renal and write it down.
OUTPUT: > 100 µM

INPUT: Recall the reported TGI of "Nc1cccc2nsnc12" on UO-31 renal and write it down.
OUTPUT: > 100 µM

INPUT: Recall the reported TGI of "O=C(/C=C/c1ccc(F)c(F)c1)OCCc1ccccc1" on UO-31 renal and write it down.
OUTPUT: > 100 µM
